// data source = the MegaScale stability set (Tsuboyama et al. 2023)

B1: EHEE_rd3_0053 (parent)
chain: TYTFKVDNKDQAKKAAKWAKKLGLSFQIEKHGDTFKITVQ

Variants of: B1
procedureDetails: folding stability dG (cDNA display proteolysis); higher = more stable
measurementParameters: PBS, room temperature
observationType: folding stability dG (kcal/mol)
Answer format: numeric, kcal/mol implied, no suffix.

Worked cases, folding stability dG given:
A15V :: 3.15
I28F :: 1.47
A12W :: 1.29

Just so you know, measured folding stability dG for K21Q came out at 2.24

Per the records, this variant ( K13A ) has folding stability dG equal to 2.31

# variant E29Y ; its folding stability dG = 1.95

Looking up T38M , I found its folding stability dG recorded as 1.83

response.value for D33P (field: folding stability dG) = 2.12

A16M yielded folding stability dG of 2.45
